- test summary: compound effects on multiple myeloma cell viability – MM1S, calcein-AM fluorescence, 48 h, basal, profiling panel (AID 1165);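 note: viability of MM1S multiple myeloma cells under basal unstimulated conditions; test concentration not given here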
- settings: higher = more signal
Lab note: anything with z-score at or over -2 counts as label 1; the rest go in label 0.

| molecule | label value |
| --- | --- |
| C=C(/C(=C/C[C@@H](OC(=O)c1ccncc1)c1cccc(OCCO)c1)c1cc(C(=O)OC)ccc1OC)C(C)C | label 0 |
| Cc1ccc(S[C@]2(C(=O)NCc3ccccc3)CC(=O)N(C3Cc4ccccc4C3)[C@@H]2c2ccc(CO)cc2I)cc1 | label 0 |
| C=CC[C@]1(C(=O)NCC(O)CO)N=C(c2ccc(OCCCO)cc2)O[C@H]1c1ccccc1N=[N+]=[N-] (some centres not stated) | label 1 |
| CCCN1C(=O)[C@@]2(Cc3ccccc3)N=C(c3ccc(OCCCO)cc3)O[C@H]2c2ccccc21 | label 0 |
| N#Cc1ccc(NN2C(C(O)c3ccccc3)C=CC3C(=O)N(c4ccccc4)C(=O)C32)cc1 (configuration not stated) | label 1 |
| COc1ccc(C#Cc2ccc3c(c2)[C@]2(C(=O)N3)[C@H](C(N)=O)[C@H]3C(=O)O[C@H](c4ccccc4)[C@H](c4ccccc4)N3[C@@H]2c2ccc(O)cc2)cc1 | label 0 |
| NC(=O)NCC#Cc1ccc2c(c1)[C@]1(C(=O)N2)[C@H](c2ccc(OCCO)cc2)N2[C@H](c3ccccc3)[C@H](c3ccccc3)OC(=O)[C@H]2[C@@H]1C(=O)N1CCCCCCC1 | label 1 |

Reference source for all entries: PubChem BioAssay
